biological target: c-Src SH2; assay: SH2 binding enrichment of the phosphorylated peptide, bacterial display (enrichment ratio); higher = better substrate or ligand; peptides without Tyr show the background;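 further: peptide library displayed on the E. coli surface as eCPX fusions, selected cells deep-sequenced, score is each peptide's frequency after selection divided by its frequency in the input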
readout.type: SH2 binding enrichment

[
  {
    "biosequence": "KNITEYCRDLI [RECQL_Y492]",
    "SH2 binding enrichment": 0.68
  },
  {
    "biosequence": "GRQGIYTENKR [GPR143_Y231_E235K]",
    "SH2 binding enrichment": 0.61
  },
  {
    "biosequence": "TETGRYEILTE",
    "SH2 binding enrichment": 17.2
  },
  {
    "biosequence": "KSRQIYDAFIM [GRK3_Y109_R104K_YF]",
    "SH2 binding enrichment": 0.477
  },
  {
    "biosequence": "GGGFGYQKTKK [DDX18_Y643]",
    "SH2 binding enrichment": 0.712
  },
  {
    "biosequence": "ARVDTYCRHNF [HLA-DRB1_Y107_A103R_YF]",
    "SH2 binding enrichment": 0.757
  },
  {
    "biosequence": "KVKEQYQDVPM [PKP2_Y659]",
    "SH2 binding enrichment": 0.728
  },
  {
    "biosequence": "KKLHKYNTQFQ [PIK3R1_Y452_E451K]",
    "SH2 binding enrichment": 1.24
  }
]

1: INSLKYAFNIS [EIF2B5_Y583_YF]
2: FSAGTYPRMEE [SYCN_Y108_L111M]
Identify the entry with the larger SH2 binding enrichment. Options: 1 and 2 Answer by quoting the chosen item's label.
2
(2: 1.08, 1: 0.44)
